- System: p-CHK1 (Ser345)
- protocolText: AlphaLISA SureFire Ultra p-CHK1 (Ser345) cellular assay in HT29 cells
- Format: cell-based
- conditionParameters: 16 h at 37° C.
pIC50: −log10 of the molar value.
measuredQuantity: pIC50

Exercise: Endpoint output: pIC50 of COc1cccc(O[C@H]2CC3(C[C@@H](N)C3)C2)c1-c1cc(Nc2cnc(C#N)cn2)n[nH]1 (stereo partly shown) [Example 3-11] . Value?
Solution: ≥ 7.30

* * *

IC50 tested on Full-length human Chk1 protein (Homo sapiens): recorded values

Worked cases, answers included:
>  <itemSmiles>
Cc1nc(-c2cc(Nc3cnc(C(N)=O)cn3)n[nH]2)c(O[C@@H]2CC[C@H](N)C2)cc1F

>  <IC50>
> 1000 nM

$$$$
>  <itemSmiles>
N#Cc1cnc(Nc2cc(-c3c(O[C@@H]4CC[C@H](N)C4)ccc(F)c3F)[nH]n2)cn1

>  <IC50>
10 to 100 nM

$$$$

Exercise: Sample N#Cc1cnc(Nc2cc(-c3c(F)cc(Cl)cc3O[C@@H]3CC[C@@H](N)C3)[nH]n2)cn1 — what was its IC50?
Solution: ≤ 10 nM

Exercise: Fill blank: measured IC50 of the compound COc1cccc(O[C@H]2CC[C@H](N)C2)c1-c1cc(Nc2cnc(C#N)cn2)n[nH]1 is ____.
Solution: > 1000 nM

* * *

- targetEntity: Full-length human Chk1 protein (Homo sapiens, UniProt O14757)
- Sequence (O14757 1-476): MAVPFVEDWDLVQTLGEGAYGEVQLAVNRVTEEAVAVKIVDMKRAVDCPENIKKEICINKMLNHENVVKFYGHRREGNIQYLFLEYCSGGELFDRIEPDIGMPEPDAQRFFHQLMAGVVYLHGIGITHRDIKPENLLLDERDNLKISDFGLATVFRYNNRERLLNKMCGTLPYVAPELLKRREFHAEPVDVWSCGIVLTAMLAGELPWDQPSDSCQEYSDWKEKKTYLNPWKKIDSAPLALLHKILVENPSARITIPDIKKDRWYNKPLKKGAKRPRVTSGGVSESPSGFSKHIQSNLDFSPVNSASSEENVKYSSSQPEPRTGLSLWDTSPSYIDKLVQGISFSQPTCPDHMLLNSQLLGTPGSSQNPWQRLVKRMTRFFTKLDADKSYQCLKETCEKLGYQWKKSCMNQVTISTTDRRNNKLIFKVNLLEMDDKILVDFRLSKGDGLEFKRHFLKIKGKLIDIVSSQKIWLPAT
# Lookup of reported IC50 keyed by entry

These recorded examples may help you get a feel for the data.
>  <compound>
Cc1cc(-c2cc(Nc3cnc(C#N)cn3)n[nH]2)c(O[C@@H]2CC[C@@H](N)C2)cc1F [Example 3-27]

>  <resultValue>
≤ 10 nM

$$$$
>  <compound>
COc1c(F)ccc(O[C@H]2C[C@H](N)C2)c1-c1cc(Nc2cnc(C#N)cn2)n[nH]1 [Example 2-3]

>  <resultValue>
10 to 100 nM

$$$$
>  <compound>
Cc1cc(F)c(-c2cc(Nc3cnc(C#N)cn3)n[nH]2)c(O[C@@H]2CC[C@H](N)C2)c1 [Example 5-2]

>  <resultValue>
10 to 100 nM

$$$$
>  <compound>
N#Cc1cnc(Nc2cc(-c3ccccc3O[C@@H]3CC[C@H](N)C3)[nH]n2)cn1 [Example 1-52]

>  <resultValue>
10 to 100 nM

$$$$
>  <compound>
Cc1cc(F)c(-c2cc(Nc3cnc(C#N)cn3)n[nH]2)c(O[C@@H]2CC[C@@H](N)C2)c1 [Example 5-1]

>  <resultValue>
≤ 10 nM

$$$$

Exercise: For the compound N#Cc1cnc(Nc2cc(-c3c(F)cccc3O[C@H]3CC[C@H](N)CC3)[nH]n2)cn1 [Example 1-19] , what IC50 is on record?
Solution: 10 to 100 nM

Exercise: What IC50 value was documented for this compound, CN[C@H]1C[C@H](Oc2cccc(OC)c2-c2cc(Nc3cnc(C#N)cn3)n[nH]2)C1 [Example 1-16] ?
Solution: 10 to 100 nM

Exercise: I'd like to know its IC50. The compound in question is Cc1ccc(O[C@H]2C[C@H](N)C2)c(-c2cc(Nc3cnc(C#N)cn3)n[nH]2)n1 [Example 1-62]
Solution: 10 to 100 nM

Exercise: Return reported IC50; argument: COc1cccc(O[C@@H]2CC[C@@H]2N)c1-c1cc(Nc2cnc(C#N)cn2)n[nH]1 [Example 3-4]
Solution: 10 to 100 nM

Exercise: What does the data say about its IC50? Entry: COc1cccc(O[C@@H]2CCC[C@@H](N)C2)c1-c1cc(Nc2cnc(C#N)cn2)n[nH]1 [Example 1-64]
Solution: > 1000 nM

Exercise: # lookup: IC50 of CN[C@@H]1CC[C@@H](Oc2cc(Cl)cc(F)c2-c2cc(Nc3cnc(C#N)cn3)n[nH]2)C1 [Example 3-25]
Solution: 10 to 100 nM

* * *

Recorded IC50 for the following compounds
- Test system: p-CHK1 (Ser345)
- protocolText: AlphaLISA SureFire Ultra p-CHK1 (Ser345) cellular assay in HT29 cells
- Assay type: cell-based
- conditionParameters: Homo sapiens, HT-29, 16 h at 37° C.

Example entries begin here.
>  <compound>
CN[C@H]1CC[C@H](Oc2cccc(OC)c2-c2cc(Nc3cnc(C#N)cn3)n[nH]2)CC1 [Example 1-45]

>  <resultValue>
0.05 to 0.1 µM

$$$$
>  <compound>
N#Cc1cnc(Nc2cc(-c3ncccc3O[C@@H]3CC[C@@H](N)C3)[nH]n2)cn1 (stereo in doubt) [Example 1-59]

>  <resultValue>
> 1 µM

$$$$
>  <compound>
CN[C@H]1C[C@H](Oc2cccc(F)c2-c2cc(Nc3cnc(C#N)cn3)n[nH]2)C1 [Example 2-5]

>  <resultValue>
0.1 to 0.5 µM

$$$$
>  <compound>
N#Cc1cnc(Nc2cc(-c3cccc(Cl)c3O[C@@H]3CC[C@H](N)C3)[nH]n2)cn1 [Example 3-14]

>  <resultValue>
> 1 µM

$$$$
>  <compound>
COc1cccc(O[C@H]2C[C@@H](N)C2)c1-c1cc(Nc2cnc(C#N)cn2)n[nH]1 [Example 1-4]

>  <resultValue>
> 1 µM

$$$$

Exercise: Entry COc1cccc(O[C@H]2CC3(C[C@@H](N)C3)C2)c1-c1cc(Nc2cnc(C#N)cn2)n[nH]1 (stereo partly shown) [Example 3-10] : reported IC50 = ?
Solution: ≤ 0.05 µM

Exercise: Endpoint output: IC50 of N#Cc1cnc(Nc2cc(-c3ccccc3O[C@H]3CC[C@H](N)CC3)[nH]n2)cn1 [Example 1-51] . Value?
Solution: > 1 µM

* * *

- Tested on: p-CHK1 (Ser345)
- protocolText: AlphaLISA SureFire Ultra p-CHK1 (Ser345) cellular assay in HT29 cells
- Assay type: cell-based
- conditionParameters: Homo sapiens, HT-29, 16 h at 37° C.
measuredQuantity: IC50

>  <compound>
N#Cc1cnc(Nc2cc(-c3c(O[C@@H]4CC[C@H](N)C4)ccc(Cl)c3F)[nH]n2)cn1 [Example 3-19]

>  <targetEntity>
p-CHK1 (Ser345)

>  <IC50>
> 1000 nM

$$$$
>  <compound>
N#Cc1cnc(Nc2cc(-c3c(F)cc(Cl)cc3O[C@@H]3CC[C@H](N)C3)[nH]n2)cn1 [Example 3-24]

>  <targetEntity>
p-CHK1 (Ser345)

>  <IC50>
500 to 1000 nM

$$$$
>  <compound>
COc1cccc(O[C@@H]2CC[C@H](N)C2)c1-c1cc(Nc2cnc(C#N)c(C)n2)n[nH]1 [Example 1-39]

>  <targetEntity>
p-CHK1 (Ser345)

>  <IC50>
500 to 1000 nM

$$$$
>  <compound>
[2H]C([2H])([2H])Oc1cccc(O[C@@H]2CC[C@H](N)C2)c1-c1cc(Nc2cnc(C#N)cn2)n[nH]1 [Example 3-15]

>  <targetEntity>
p-CHK1 (Ser345)

>  <IC50>
≤ 50 nM

$$$$
>  <compound>
COc1cccc(O[C@@H]2CC[C@@H](N(C)C)C2)c1-c1cc(Nc2cnc(C#N)cn2)n[nH]1 [Example 1-48]

>  <targetEntity>
p-CHK1 (Ser345)

>  <IC50>
50 to 100 nM

$$$$
>  <compound>
Cc1ccc(O[C@@H]2CC[C@@H](N)C2)c(-c2cc(Nc3cnc(C#N)cn3)n[nH]2)n1 [Example 1-60]

>  <targetEntity>
p-CHK1 (Ser345)

>  <IC50>
≤ 50 nM

$$$$
>  <compound>
Cc1nc(-c2cc(Nc3cnc(C#N)cn3)n[nH]2)c(O[C@@H]2CC[C@H](N)C2)cc1F [Example 3-50]

>  <targetEntity>
p-CHK1 (Ser345)

>  <IC50>
50 to 100 nM

$$$$
>  <compound>
CN(C)[C@@H]1CC[C@@H](Oc2cccc(F)c2-c2cc(Nc3cnc(C#N)cn3)n[nH]2)C1 [Example 5-4]

>  <targetEntity>
p-CHK1 (Ser345)

>  <IC50>
> 1000 nM

$$$$

Exercise: Please report the recorded IC50 for N#Cc1cnc(Nc2cc(-c3cccc(F)c3O[C@@H]3CC[C@H](N)C3)[nH]n2)cn1 [Example 3-13] .
Solution: > 1000 nM

Exercise: I have this compound here, CCOc1cccc(O[C@@H]2CC[C@H](N)C2)c1-c1cc(Nc2cnc(C#N)cn2)n[nH]1 [Example 1-23] , and I need its recorded IC50.
Solution: 100 to 500 nM

Exercise: I would be grateful if you could share the reported IC50 for N#Cc1cnc(Nc2cc(-c3ccccc3O[C@H]3CC[C@@H](N)C3)[nH]n2)cn1 [Example 2-1] .
Solution: > 1000 nM

Exercise: IC50 lookup needed for N#Cc1cnc(Nc2cc(-c3c(F)cc(Cl)cc3O[C@@H]3CC[C@@H](N)C3)[nH]n2)cn1 [Example 3-30] , thanks.
Solution: 100 to 500 nM

Exercise: // IC50 lookup, key: N#Cc1cnc(Nc2cc(-c3ccccc3O[C@@H]3CC[C@@H](N)C3)[nH]n2)cn1 (stereo in doubt) [Example 1-37]
Solution: > 1000 nM

Exercise: Sample COc1c(Cl)ccc(O[C@@H]2CC[C@H](N)C2)c1-c1cc(Nc2cnc(C#N)cn2)n[nH]1 [Example 4-2] — what was its IC50?
Solution: 500 to 1000 nM

Exercise: For N#Cc1cnc(Nc2cc(-c3ncccc3O[C@@H]3CC[C@H](N)C3)[nH]n2)cn1 [Example 1-63] , what is its reported IC50?
Solution: 100 to 500 nM

Exercise: Requested read-out: IC50. Entry: COc1cccc(O[C@H]2CCCC[C@H](N)C2)c1-c1cc(Nc2cnc(C#N)cn2)n[nH]1 [Example 3-7]
Solution: ≤ 50 nM

Origin of the recorded values: patent US11707462B2
